test system: Staphylococcus aureus; assay: Antibacterial activity against normal phenotype Staphylococcus aureus in cation-adjusted MH 2 broth at pH 5.5 after 24 hrs by broth microdilution method; format: functional
Reported MIC values for a set of compounds
Just the number please, in µg/mL, no unit attached.

Sample records with MIC:
Quick check: MIC of `CC(=O)O[C@H]1C[C@@]2(C)[C@@H](C[C@@H](O)[C@H]3[C@@]4(C)CC[C@@H](O)[C@@H](C)[C@@H]4CC[C@@]32C)/C1=C(\CCC=C(C)C)C(=O)O` ? 0.125

Ok, now `Cc1onc(-c2ccccc2)c1C(=O)N[C@@H]1C(=O)N2[C@@H]1SC(C)(C)[C@@H]2C(=O)O` 0.03

Ok, now `CO[C@H]1/C=C/O[C@@]2(C)Oc3c(C)c(O)c4c(O)c(c(/C=N/N5CCN(C)CC5)c(O)c4c3C2=O)NC(=O)/C(C)=C\C=C\[C@H](C)[C@H](O)[C@@H](C)[C@@H](O)[C@@H](C)[C@H](OC(C)=O)[C@@H]1C` 0.0002

New cases:
Quick check: MIC of `CCCCCCCCCCNCCN[C@@]1(C)C[C@H](O[C@H]2[C@H](Oc3c4cc5cc3Oc3ccc(cc3Cl)[C@@H](O)[C@@H](NC(=O)[C@@H](CC(C)C)NC)C(=O)N[C@@H](CC(N)=O)C(=O)N[C@H]5C(=O)N[C@H]3C(=O)N[C@H](C(=O)N[C@H](C(=O)O)c5cc(O)c(CNCP(=O)(O)O)c(O)c5-c5cc3ccc5O)[C@H](O)c3ccc(c(Cl)c3)O4)O[C@H](CO)[C@@H](O)[C@@H]2O)O[C@@H](C)[C@H]1O` ? 0.125

Ok, now `CCCCCCCCCC(=O)N[C@@H](Cc1c[nH]c2ccccc12)C(=O)N[C@H](CC(N)=O)C(=O)N[C@@H](CC(=O)O)C(=O)N[C@@H]1C(=O)NCC(=O)N[C@@H](CCCN)C(=O)N[C@@H](CC(=O)O)C(=O)N[C@H](C)C(=O)N[C@@H](CC(=O)O)C(=O)NCC(=O)N[C@H](CO)C(=O)N[C@@H]([C@H](C)CC(=O)O)C(=O)N[C@@H](CC(=O)c2ccccc2N)C(=O)O[C@@H]1C` 0.125

* * *

Reported Cmax values for a set of molecules
experiment: Cmax in human plasma; assay type: ADME, organism-based; details: plasma
Just the number please, in ng/mL, no unit attached.

Sample records with Cmax:
Quick check: Cmax of `CN(C)c1cc(NC(=O)CNC(C)(C)C)c(O)c2c1C[C@H]1C[C@H]3[C@H](N(C)C)C(O)=C(C(N)=O)C(=O)[C@@]3(O)C(O)=C1C2=O` ? 1000

Ok, now `CCC[C@@H]1C[C@@H](C(=O)N[C@@H]([C@H]2O[C@H](SC)[C@H](O)[C@@H](O)[C@H]2O)[C@H](C)Cl)N(C)C1` 4000

Ok, now `CCCCCCCCCC(=O)N[C@@H](Cc1c[nH]c2ccccc12)C(=O)N[C@H](CC(N)=O)C(=O)N[C@@H](CC(=O)O)C(=O)N[C@@H]1C(=O)NCC(=O)N[C@@H](CCCN)C(=O)N[C@@H](CC(=O)O)C(=O)N[C@H](C)C(=O)N[C@@H](CC(=O)O)C(=O)NCC(=O)N[C@H](CO)C(=O)N[C@@H]([C@H](C)CC(=O)O)C(=O)N[C@@H](CC(=O)c2ccccc2N)C(=O)O[C@@H]1C` 57000

Ok, now `Cc1onc(-c2ccccc2)c1C(=O)N[C@@H]1C(=O)N2[C@@H]1SC(C)(C)[C@@H]2C(=O)O` 64000

Ok, now `CCCCCCCCCCNCCN[C@@]1(C)C[C@H](O[C@H]2[C@H](Oc3c4cc5cc3Oc3ccc(cc3Cl)[C@@H](O)[C@@H](NC(=O)[C@@H](CC(C)C)NC)C(=O)N[C@@H](CC(N)=O)C(=O)N[C@H]5C(=O)N[C@H]3C(=O)N[C@H](C(=O)N[C@H](C(=O)O)c5cc(O)c(CNCP(=O)(O)O)c(O)c5-c5cc3ccc5O)[C@H](O)c3ccc(c(Cl)c3)O4)O[C@H](CO)[C@@H](O)[C@@H]2O)O[C@@H](C)[C@H]1O` 90000

Ok, now `CO[C@H]1/C=C/O[C@@]2(C)Oc3c(C)c(O)c4c(O)c(c(/C=N/N5CCN(C)CC5)c(O)c4c3C2=O)NC(=O)/C(C)=C\C=C\[C@H](C)[C@H](O)[C@@H](C)[C@@H](O)[C@@H](C)[C@H](OC(C)=O)[C@@H]1C` 18000

Ok, now `CN[C@H](CC(C)C)C(=O)N[C@H]1C(=O)N[C@@H](CC(N)=O)C(=O)N[C@H]2C(=O)N[C@H]3C(=O)N[C@H](C(=O)N[C@H](C(=O)O)c4cc(O)cc(O)c4-c4cc3ccc4O)[C@H](O[C@H]3C[C@](C)(N)[C@@H](O)[C@H](C)O3)c3ccc(c(Cl)c3)Oc3cc2cc(c3O[C@@H]2O[C@H](CO)[C@@H](O)[C@H](O)[C@H]2O[C@H]2C[C@](C)(NCc3ccc(-c4ccc(Cl)cc4)cc3)[C@@H](O)[C@H](C)O2)Oc2ccc(cc2Cl)[C@H]1O` 25000

Ok, now `CN[C@H](CC(C)C)C(=O)N[C@H]1C(=O)N[C@@H](CC(N)=O)C(=O)N[C@H]2C(=O)N[C@H]3C(=O)N[C@H](C(=O)N[C@H](C(=O)O)c4cc(O)cc(O)c4-c4cc3ccc4O)[C@H](O)c3ccc(c(Cl)c3)Oc3cc2cc(c3O[C@@H]2O[C@H](CO)[C@@H](O)[C@H](O)[C@H]2O[C@H]2C[C@](C)(N)[C@H](O)[C@H](C)O2)Oc2ccc(cc2Cl)[C@H]1O` 50000

Ok, now `CC(=O)NC[C@H]1CN(c2ccc(N3CCOCC3)c(F)c2)C(=O)O1` 16000

Ok, now `CC(=O)O[C@H]1C[C@@]2(C)[C@@H](C[C@@H](O)[C@H]3[C@@]4(C)CC[C@@H](O)[C@@H](C)[C@@H]4CC[C@@]32C)/C1=C(\CCC=C(C)C)C(=O)O` 30000

Please look at the following molecule next.
Quick check: Cmax of `COc1c(N2C[C@@H]3CCCN[C@@H]3C2)c(F)cc2c(=O)c(C(=O)O)cn(C3CC3)c12` ? 4000
